Molecular target: 5-hydroxytryptamine receptor 1A (Rattus norvegicus)
Sequence (P19327 whole entry): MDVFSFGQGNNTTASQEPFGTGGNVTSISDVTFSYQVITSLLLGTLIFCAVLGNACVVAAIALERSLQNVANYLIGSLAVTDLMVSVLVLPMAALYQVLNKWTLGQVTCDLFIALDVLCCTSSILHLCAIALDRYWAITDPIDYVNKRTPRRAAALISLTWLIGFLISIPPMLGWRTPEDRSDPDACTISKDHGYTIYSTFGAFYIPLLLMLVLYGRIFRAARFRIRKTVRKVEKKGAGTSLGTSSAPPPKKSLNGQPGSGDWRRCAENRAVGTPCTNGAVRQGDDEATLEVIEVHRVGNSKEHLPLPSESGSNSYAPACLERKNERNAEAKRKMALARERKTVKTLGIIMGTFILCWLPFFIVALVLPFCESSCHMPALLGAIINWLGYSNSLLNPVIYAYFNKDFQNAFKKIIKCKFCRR
List of Ki values.

{"smiles data": "CCCN1CCC=C(c2c[nH]c3ccc(C(N)=O)cc23)C1", "Ki / µM": 0.0047}
{"smiles data": "COc1ccc2[nH]cc(C3=CCCN(C)C3)c2c1", "Ki / µM": 0.079}
{"smiles data": "CCCN1CCC=C(c2c[nH]c3ccc(Br)cc23)C1", "Ki / µM": 0.192}
{"smiles data": "CN1CCC=C(c2c[nH]c3ccc(Br)cc23)C1", "Ki / µM": 0.05}
{"smiles data": "Cc1ccc2[nH]cc(C3=CCCN(C)C3)c2c1", "Ki / µM": 0.072}
{"smiles data": "CCN1CCC=C(c2c[nH]c3ccccc23)C1", "Ki / µM": 0.213}
{"smiles data": "CCN1CCC=C(c2c[nH]c3ccc(C)cc23)C1", "Ki / µM": 0.042}
{"smiles data": "CCCN1CCC=C(c2c[nH]c3ccccc23)C1", "Ki / µM": 0.556}
{"smiles data": "CCCN1CCC=C(c2c[nH]c3ccc(OC)cc23)C1", "Ki / µM": 0.226}

* * *

List of Ki values.
molecular target: Serotonin 2 (5-HT2) receptor (Rattus norvegicus, UniProt P30994+P08909+P14842); assay: Binding affinity to 5-hydroxytryptamine 2 receptor using [3H]ketanserin radioligand assay.; assay type: protein assay

{"smiles data": "CCCN1CCC=C(c2c[nH]c3ccc(NC(C)=O)cc23)C1", "measurement unit": "nM", "measurement qualifier": ">", "Ki": 50000}
{"smiles data": "CN1CCC=C(c2c[nH]c3ccc(C(N)=O)cc23)C1", "measurement unit": "nM", "measurement qualifier": ">", "Ki": 10000}
{"smiles data": "CCCN1CCC=C(c2c[nH]c3ccc(OC)cc23)C1", "measurement unit": "nM", "measurement qualifier": "=", "Ki": 1070}
{"smiles data": "CN1CCC=C(c2c[nH]c3ccccc23)C1", "measurement unit": "nM", "measurement qualifier": "=", "Ki": 139}
{"smiles data": "Cc1ccc2[nH]cc(C3=CCCN(C)C3)c2c1", "measurement unit": "nM", "measurement qualifier": "=", "Ki": 194}
{"smiles data": "CN1CCC=C(c2c[nH]c3ccc(O)cc23)C1", "measurement unit": "nM", "measurement qualifier": "=", "Ki": 237}
{"smiles data": "COc1ccc2[nH]cc(C3=CCCNC3)c2c1", "measurement unit": "nM", "measurement qualifier": "=", "Ki": 230}
{"smiles data": "CCN1CCC=C(c2c[nH]c3ccccc23)C1", "measurement unit": "nM", "measurement qualifier": "=", "Ki": 165}
{"smiles data": "CCCN1CCC=C(c2c[nH]c3ccccc23)C1", "measurement unit": "nM", "measurement qualifier": "=", "Ki": 146}
{"smiles data": "CCN1CCC=C(c2c[nH]c3ccc(Br)cc23)C1", "measurement unit": "nM", "measurement qualifier": "=", "Ki": 125}
{"smiles data": "CCCN1CCC=C(c2c[nH]c3ccc(C(=O)OC)cc23)C1", "measurement unit": "nM", "measurement qualifier": ">", "Ki": 50000}
{"smiles data": "CCN1CCC=C(c2c[nH]c3ccc(F)cc23)C1", "measurement unit": "nM", "measurement qualifier": "=", "Ki": 67}
